- Measurement Target: Human pyruvate kinase R (PKR) (Homo sapiens, UniProt P30613)
- Construct: Human pyruvate kinase R (PKR), residues 14-574; 6x-His (N, cleaved yes); 8x-Arg (N, cleaved yes); SUMO (N, cleaved yes); host or cells: E. coli
- Sequence (P30613 14-574): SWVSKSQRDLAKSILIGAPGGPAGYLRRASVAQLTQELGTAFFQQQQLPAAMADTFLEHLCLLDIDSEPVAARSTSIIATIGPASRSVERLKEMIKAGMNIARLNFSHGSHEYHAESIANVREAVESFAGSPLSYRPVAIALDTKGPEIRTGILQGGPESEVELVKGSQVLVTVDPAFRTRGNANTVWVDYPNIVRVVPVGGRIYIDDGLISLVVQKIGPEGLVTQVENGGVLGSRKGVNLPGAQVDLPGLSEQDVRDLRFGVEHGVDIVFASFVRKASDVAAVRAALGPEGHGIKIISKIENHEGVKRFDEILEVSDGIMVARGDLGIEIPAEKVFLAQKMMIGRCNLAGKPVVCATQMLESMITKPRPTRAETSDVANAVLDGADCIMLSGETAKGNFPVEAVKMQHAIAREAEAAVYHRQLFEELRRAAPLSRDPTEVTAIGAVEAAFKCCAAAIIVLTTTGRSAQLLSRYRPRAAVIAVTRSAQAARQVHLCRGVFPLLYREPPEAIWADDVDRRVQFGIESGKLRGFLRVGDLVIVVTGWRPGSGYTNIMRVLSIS
- Procedure Text: Biochemical assay for activation of pyruvate kinase R (Kinase-Glo luminescence, ATP generation)
- Condition Parameters: 0.1 nM PKR, 2 mM FBP, 0.3 mM ADP, 0.1 mM PEP
Measured Endpoint: AC50 (nM)
Reply numerically in nM, unit not repeated.

Please review the entries below; each comes with its answer.
1. NC(C(=O)N1Cc2cn(S(=O)(=O)c3ccc4ncsc4c3)nc2C1)c1cccc(C(F)(F)F)c1 (racemic): 72
2. Cc1ccc(C2(C(=O)N3Cc4cn(S(=O)(=O)c5ccc6ncsc6c5)nc4C3)CCOC2)cn1 (single isomer, unassigned): 173
3. CC(O)C(C(=O)N1Cc2cn(S(=O)(=O)c3ccc4ncsc4c3)nc2C1)c1ccccc1Cl (single isomer, unassigned): 4.7

Then this compound:
-- ask Look up AC50 of C[C@@H](O)[C@H](C(=O)N1Cc2cn(S(=O)(=O)c3ccc4cn[nH]c4c3)nc2C1)c1ccccc1 (single isomer, unassigned) and report it.
-- reply 47
